# test summary: Stability of a solution in pH 8 aqueous buffer on standing for 12 weeks at 50° C.
# Assay type: physicochemical
# condition summary: pH 8 aqueous buffer, 12 weeks at 50° C.; read-out: eletriptan left (relative to the original weight)
value type: remaining at 2016 h

Enquiry: State, in one line, measured remaining at 2016 h of CN1CCC[C@@H]1Cc1c[nH]c2ccc(CCS(=O)(=O)c3ccccc3)cc12 [Eletriptan hemisulphate]
Return: < 85%
